These measurements were taken from patent US11155556B2.

System: Loucy cells
Assay: CellTiter-Glo cell viability assay, Loucy
Assay type: cell-based
Conditions: 72 h, 3 days, average of three replicates
quantityKind: IC50
Provide a numeric answer, followed by its unit.

Entry C[C@H](Nc1ncnc2nc[nH]c12)c1cc2cccc(Cl)c2c(=O)n1-c1ccccc1 [Duvelisib, reference compound] , IC50 reported as 980 nM

* * *

quantityKind: IC50 (nM)
Reply numerically in nM, unit not repeated.

Test item CN1C(=O)c2ccccc2N(C)c2nc(Nc3cccc(S(N)(=O)=O)c3)ncc21 [Compound 17] ; PI3K-γ (Homo sapiens (Human)); reported IC50 was 4

Test item C=CC(=O)NC1CCN(S(=O)(=O)c2cccc(Nc3ncc4c(n3)N(C)c3ccc(C)cc3C(=O)N4C)c2)CC1 [Compound 3] ; PI3K-γ (Homo sapiens (Human)); reported IC50 was 20

Test item C=CC(=O)Nc1cccc(NS(=O)(=O)c2cccc(Nc3ncc4c(n3)N(C)c3ccc(C)cc3C(=O)N4C)c2)c1 [Compound 7] ; PI3K-γ (Homo sapiens (Human)); reported IC50 was 39

Test item C=CC(=O)Nc1ccc(NS(=O)(=O)c2ccc(Nc3ncc4c(n3)N(C)c3ccc(C)cc3C(=O)N4C)cc2)cc1 [Compound 6] ; PI3K-γ (Homo sapiens (Human)); reported IC50 was 96
